This collection of values is drawn from paper PMC8578629.

- assaySummary: MTT cytotoxicity assay, keratinocytes
- Type: cell-based
- conditionContext: human, HaCaT cells (keratinocytes), proliferation, dark
Entries and their IC50 at 48 h values follow.
Answer as a quantity: numeral, then unit.

Observe how each entry below is paired with its result.
- sampleSmiles: "CCN(CC)c1ccc2ccc(/C=C/c3ccc(N(C)C)cc3)[o+]c2c1"
  valueReported: "35.4 µM"
- sampleSmiles: "CN(C)c1ccc(-c2ccc3c(O)cccc3[o+]2)cc1"
  valueReported: "14.9 µM"

Kindly note the recorded IC50 at 48 h for CCN(CC)c1ccc2ccc(-c3ccc(N)cc3)[o+]c2c1 , which is 8.9 µM

* * *

Entries and their IC50 at 48 h values follow.
- assaySummary: MTT cytotoxicity assay, keratinocytes
- Type: cell-based
- conditionContext: human, HaCaT cells (keratinocytes), monolayer confluence, dark
Respond numerically; units are µM and should not be typed.

Kindly note the recorded IC50 at 48 h for CN(C)c1ccc(-c2ccc3c(O)cccc3[o+]2)cc1 , which is 47.3

Kindly note the recorded IC50 at 48 h for CCN(CC)c1ccc2ccc(-c3ccc(N)cc3)[o+]c2c1 , which is 29.8

Kindly note the recorded IC50 at 48 h for CCN(CC)c1ccc2ccc(/C=C/c3ccc(N(C)C)cc3)[o+]c2c1 , which is 91
